Every entry's value here was drawn from patent US20260232732A1.

Listed next: entries and their corresponding OD450.
target: T1, biotin-peptide TSPIPNMADD (human); assay: ELISA biotin-peptide; scFv 10 ug/mL; repI
T1 peptide: Biotin-TSPIPNMADD
Where no end group is shown, it is not given here. The star is where a group is joined. Biotin = O=C1N[C@H]2[C@H](CS[C@H]2CCCCC(=O)*)N1
The response must be a number in OD with no trailing unit.

Look over these answered cases.
{"BINDER": "Comparative antibody 2 (Comp-2) scFv, 243LO326 (VH SEQ ID NO: 51 and VL SEQ ID NO: 52 of WO 2022/195028 A2), His-tagged (scFv) scFv: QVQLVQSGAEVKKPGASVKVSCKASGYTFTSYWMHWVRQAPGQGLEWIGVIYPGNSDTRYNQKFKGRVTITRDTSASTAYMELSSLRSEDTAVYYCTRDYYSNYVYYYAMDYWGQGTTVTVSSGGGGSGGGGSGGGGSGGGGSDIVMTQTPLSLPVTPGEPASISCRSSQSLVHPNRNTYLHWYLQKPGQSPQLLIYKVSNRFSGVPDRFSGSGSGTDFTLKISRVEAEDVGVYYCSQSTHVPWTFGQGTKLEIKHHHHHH", "MEASURED ATTRIBUTE": "OD450", "ASSAY VALUE": 0.04}
{"BINDER": "Comparative antibody 1 (Comp-1) scFv, SEQ ID NO: 10 from WO2023/037125 A1, His-tagged (scFv) scFv: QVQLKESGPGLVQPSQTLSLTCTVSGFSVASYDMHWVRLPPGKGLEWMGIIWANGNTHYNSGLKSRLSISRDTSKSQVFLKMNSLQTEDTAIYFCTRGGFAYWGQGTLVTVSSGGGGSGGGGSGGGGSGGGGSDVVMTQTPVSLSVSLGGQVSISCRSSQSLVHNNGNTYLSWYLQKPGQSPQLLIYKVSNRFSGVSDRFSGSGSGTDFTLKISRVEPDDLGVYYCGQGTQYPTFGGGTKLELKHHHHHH", "MEASURED ATTRIBUTE": "OD450", "ASSAY VALUE": 0.13}
{"BINDER": "Comparative antibody 3 (Comp-3) scFv, SR_92R (Somovilla-Crespo et al. 2018), His-tagged (scFv) scFv: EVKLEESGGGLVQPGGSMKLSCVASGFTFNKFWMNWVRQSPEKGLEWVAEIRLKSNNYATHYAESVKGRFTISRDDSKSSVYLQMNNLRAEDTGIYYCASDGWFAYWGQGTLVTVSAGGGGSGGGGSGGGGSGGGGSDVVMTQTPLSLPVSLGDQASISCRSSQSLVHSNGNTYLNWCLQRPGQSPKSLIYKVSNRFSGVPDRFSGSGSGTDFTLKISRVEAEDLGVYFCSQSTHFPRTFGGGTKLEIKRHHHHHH", "MEASURED ATTRIBUTE": "OD450", "ASSAY VALUE": 1.6}

Next item in the queue.
I'd like to know its OD450. The binder in question is CCR9_HUM2 scFv (humanized anti-CCR9 scFv, SEQ ID NO: 17 with C-terminal 6xHis tag) (scFv) scFv: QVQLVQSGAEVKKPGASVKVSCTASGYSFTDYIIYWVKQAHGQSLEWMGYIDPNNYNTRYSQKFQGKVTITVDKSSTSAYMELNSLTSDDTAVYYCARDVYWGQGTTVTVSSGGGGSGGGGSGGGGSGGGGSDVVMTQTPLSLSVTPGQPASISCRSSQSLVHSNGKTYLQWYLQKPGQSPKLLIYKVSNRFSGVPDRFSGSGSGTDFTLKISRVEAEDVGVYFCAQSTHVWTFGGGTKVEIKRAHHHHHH
0.09
